Experiment: CREB reporter modulators under forskolin, primary screen, cell-based, PC12, CRE-LacZ reporter, forskolin-stimulated (AID 1146);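 note: PC12 cells with 6xCRE LacZ reporter stimulated by forskolin 10 µM; beta-galactosidase reporter signal reflecting CREB driven transcription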
Conditions: luminescence, 4.5 h, higher = more signal, called active from +8 up or from −8 down
quantity.kind: z-score
Number only, please.

>>> endpoint_value("CCOC(=O)C[C@H]1[C@H](OC(=O)c2ccc(-c3ccccc3)cc2)[C@@H](NC(=O)c2ccc3ccccc3c2)c2cc(OCCCO)ccc2N1C(=O)c1ccc2ccccc2n1")
-0.611
>>> endpoint_value("CC=CC(O)C1C=CC2C(=O)N(c3ccccc3)C(=O)C2N1Nc1ccc([N+](=O)[O-])cc1 (stereo not given)")
0.0268

Exam item: Tell me the measured z-score of C=C[C@@H](COC(C)=O)NS(=O)(=O)c1ccc(Br)cc1 , please.
Marked response: 0.344

Exam item: Tell me the measured z-score of C=C(/C(=C/C[C@@H](OC(=O)c1ccncc1)c1ccccc1OCCO)c1cc(C(=O)OC)ccc1OC)C(C)C , please.
Marked response: -0.267

Exam item: Tell me the measured z-score of COCC(=C=CC[C@H](O)c1ccc(OCCO)cc1)C[C@H](O)COCc1ccccc1 , please.
Marked response: -0.724

---

Assay: small-molecule microarray binders of probe aCHRDL2, primary screen, biochemical, biotinylated probe, 635/667 nm fluorescence (AID 1100)
Details: higher = more signal
Quick rule for you: composite z-score at 0.04 or higher means Criterion met, lower means Criterion not met.

Solved cases below.
>>> answer_label("C=CCC(OC(C)=O)[C@@H]1[C@@H](N(Cc2cc3ccccc3o2)C(=O)c2ccc(C)cc2)c2cc(OCCCO)ccc2N1C(=O)Cc1ccc2ccccc2c1 (stereo partly specified)")
"Criterion met"
>>> answer_label("COCCOC(=O)N1C(=O)[C@@]2(c3cc(C#Cc4ccc(OC)cc4)ccc31)[C@H](C(=O)N1CCN(c3ncccn3)CC1)[C@H]1C(=O)O[C@H](c3ccccc3)[C@H](c3ccccc3)N1[C@@H]2c1ccccc1OCCO")
"Criterion met"
>>> answer_label("O=C1O[C@H](c2ccccc2)[C@H](c2ccccc2)N2[C@H]1[C@@H](C(=O)O)[C@]1(C(=O)Nc3ccccc31)[C@H]2c1ccc(O)cc1")
"Criterion met"
>>> answer_label("C=CC[C@@]1(C(=O)N2CCCCC2)N=C(c2ccc(OCCCO)cc2)O[C@@H]1c1ccccc1")
"Criterion met"

Lab note: next molecule to report on.
Exam item: Textbook exercise: given the entry COCC(=C=CC[C@H](O)c1cccc(OCCO)c1)C[C@H](O)c1ccccn1 , state whether its composite z-score is greater than or equal to 0.04.
Marked response: Criterion not met

---

The following compounds are shown together with reported composite z-score values.
Test system: Inhibin beta A chain (activin A)
Test: INHBA (activin A) binders on microarrays, primary screen, biochemical, small-molecule microarray, 635 nm fluorescence scan (AID 1107);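 note: mouse activin A protein probed at 4.33 µg/mL on printed slides; score merges bound-protein fluorescence near 667 nm with spot signal-to-noise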
Settings: small-molecule microarray binding, higher = more signal

>>> endpoint_value("O=C(O)[C@]1(Cc2ccccc2)N=C(c2ccc(OCCCO)cc2)O[C@@H]1c1ccccc1")
0.848
>>> endpoint_value("CCCC[C@@H]1C[C@H]1[C@@H](NC(=O)c1ccccc1)c1ccc(Cl)cc1")
0.39
>>> endpoint_value("C[C@@H]1ON(c2ccc(C(=O)OC(C)(C)C)cc2)[C@H](c2ccc(Br)cc2)[C@H]1C(=O)N1C(=O)OC[C@H]1Cc1ccccc1")
-0.109
>>> endpoint_value("CCCCC(CC)C(O)C1C=CC2C(=O)N(c3ccccc3)C(=O)C2N1Nc1ccc([N+](=O)[O-])cc1 (stereo not drawn)")
0.532
>>> endpoint_value("CCOC(=O)C1=C[C@@H](c2ccccc2)N(S(=O)(=O)c2ccc(C)cc2)[C@H]1c1cccc(Cl)c1")
-0.249

Exam item: // map C=CCOC(=O)[C@H]1[C@@H]2C(=O)O[C@@H](c3ccccc3)[C@@H](c3ccccc3)N2[C@@H](c2ccc(OCCOC(=O)[C@H]3C[C@H]4C(=O)N[C@@H](Cc5ccccc5)C(=O)N4[C@H]3c3cccc(OCCO)c3)cc2)[C@]12C(=O)Nc1ccc(I)cc12 to recorded composite z-score (system: Inhibin beta A chain (activin A))
Marked response: 0.17

Exam item: // map C=C(C(=O)CC[C@H](OC(C)=O)c1cccc(OCCO)c1)C(C)C to recorded composite z-score (system: Inhibin beta A chain (activin A))
Marked response: 0.0244

Exam item: // map COCCOC(=O)N1C(=O)[C@@]2(c3cc(C#CC4=CCCCC4)ccc31)[C@H](c1ccccc1OCCO)N1[C@H](c3ccccc3)[C@H](c3ccccc3)OC(=O)[C@H]1[C@@H]2C(=O)N1CCc2cc(OC)c(OC)cc2C1 to recorded composite z-score (system: Inhibin beta A chain (activin A))
Marked response: -0.244

Exam item: // map CCOC(=O)[C@H]1C/C=C/C[C@H](C(=O)OCC)C(=O)O[C@H]2[C@@H](OC)O[C@H](CO)[C@@H](OC(=O)Nc3ccc(OC)cc3)[C@@H]2OC1=O to recorded composite z-score (system: Inhibin beta A chain (activin A))
Marked response: 0.467

Exam item: // map C=C1C2CC3C(=C4C(CO[C@@H]4[C@H]4CCCN4S(=O)(=O)c4ccccc4[N+](=O)[O-])C4C(=O)N(C)C(=O)C34)CC2C(=O)N1C (stereo partly drawn) to recorded composite z-score (system: Inhibin beta A chain (activin A))
Marked response: 0.689

Exam item: // map COCCOC(=O)N1C(=O)[C@@]2(c3cc(C#CC4(O)CCCCCC4)ccc31)[C@H](c1ccccc1OCCO)N1[C@H](c3ccccc3)[C@H](c3ccccc3)OC(=O)[C@H]1[C@@H]2C(N)=O to recorded composite z-score (system: Inhibin beta A chain (activin A))
Marked response: -0.132

Exam item: // map COc1ccc(NC(=O)O[C@H]2[C@H](OC(=O)Nc3ccc4c(c3)OCO4)[C@@H](OC(=O)Nc3ccc4c(c3)OCO4)[C@@H](OC)O[C@@H]2CO)cc1 to recorded composite z-score (system: Inhibin beta A chain (activin A))
Marked response: 0.774

Exam item: // map C=C(COC)/C(=C/C[C@@H](OC(=O)c1ccncc1)c1ccc(OCCO)cc1)c1cnc2ccccc2c1 to recorded composite z-score (system: Inhibin beta A chain (activin A))
Marked response: 1.95

---

Biological target: Follistatin-related protein 3 (Homo sapiens) (UniProt O95633)
Sequence (O95633 whole entry, looked up): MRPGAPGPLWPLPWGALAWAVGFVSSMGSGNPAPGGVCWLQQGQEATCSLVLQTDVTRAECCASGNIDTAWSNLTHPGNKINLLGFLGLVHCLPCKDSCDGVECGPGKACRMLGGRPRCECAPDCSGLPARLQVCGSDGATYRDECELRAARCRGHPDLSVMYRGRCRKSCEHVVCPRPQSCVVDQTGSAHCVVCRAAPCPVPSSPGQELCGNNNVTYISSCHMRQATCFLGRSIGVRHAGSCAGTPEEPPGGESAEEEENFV
Assay: FSTL3 binders on small-molecule microarrays, primary screen, biochemical, small-molecule microarray, 635 nm fluorescence (AID 1105);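 note: score merges emission near 667 nm and signal to noise per printed spot across three slides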
Details: FSTL3 binding, higher = more signal
Quick rule for you: composite z-score at 0.1 or higher means T, lower means F.

Solved cases below.
>>> answer_label("C=C(CCCC)C(=O)CC[C@@H](OC(=O)c1ccccc1-c1ccccc1C(=O)O)c1cccc(OCCO)c1")
"T"
>>> answer_label("O=c1cccc(-c2cccc(Cl)c2)o1")
"T"
>>> answer_label("CC(C)(C)OC(=O)CC[C@]1(C(=O)O)N=C(c2ccc(OCCCO)cc2)O[C@H]1c1ccccc1CN=[N+]=[N-]")
"F"

Exam item: Textbook exercise: given the entry C=CC[C@@]12N=C(c3ccc(OCCCO)cc3)O[C@@H]1c1ccccc1N(CCS(=O)(=O)c1ccccc1)C2=O , state whether its composite z-score is greater than or equal to 0.1.
Marked response: T

Exam item: Textbook exercise: given the entry O=C(N1CCCCC1)[C@@]1(Cc2ccccc2)COC(c2ccc(OCCCO)cc2)=N1 , state whether its composite z-score is greater than or equal to 0.1.
Marked response: T

Exam item: Textbook exercise: given the entry COC(=O)[C@@]1(Cc2ccc(OC)cc2)[C@H]2c3cc(C(=O)N(C)C)n(CCc4c[nH]c5ccc(O)cc45)c3C[C@H]2CN1C(=O)c1ccccc1 , state whether its composite z-score is greater than or equal to 0.1.
Marked response: T

Exam item: Textbook exercise: given the entry COc1ccc([Si](C)(C)[C@H]2[C@H](CCO)O[C@@]3(C(=O)N(Cc4cccc(N5CCCCC5=O)c4)c4ccccc43)[C@@H]2C)cc1 , state whether its composite z-score is greater than or equal to 0.1.
Marked response: T

Exam item: Textbook exercise: given the entry CC1CC/C=C\[C@H]2OC34C=CCN(c5ccc6ccccc6c5)C(=O)[C@H]3N(C(CO)C(C)C)C(=O)[C@@H]4C2C(=O)O1 (some centres not stated) , state whether its composite z-score is greater than or equal to 0.1.
Marked response: F

---

Assay: HepG2 liver cancer cell viability effects, profiling panel, resazurin fluorescence, 24 h, PK04 Diversity Set (AID 1172); note: test concentration not given here
Details: higher = more signal
The following compounds are shown together with reported z-score values.
Number only, please.

>>> endpoint_value("O=C1O[C@H](c2ccccc2)[C@H](c2ccccc2)N2[C@H]1[C@@H](C(=O)O)[C@]1(C(=O)Nc3ccccc31)[C@H]2c1ccc(O)cc1")
-0.401
>>> endpoint_value("CC(C)N1CC=CC23O[C@@H]4C=CCOC(=O)[C@@H]4[C@H]2C(=O)N(C(C)CO)[C@@H]3C1=O (some centres undefined)")
0.629
>>> endpoint_value("COc1ccc(C(O)C2C=CC3C(=O)N(Cc4ccccc4)C(=O)C3N2n2cnnc2)c2ccccc12 (centres undefined)")
-1.05

Now for the compound whose z-score we want.
Exam item: Tell me the measured z-score of COCCCNC(=O)[C@]1(Cc2ccccc2N=[N+]=[N-])N=C(c2ccc(OCCCO)cc2)O[C@@H]1c1ccccc1N=[N+]=[N-] , please.
Marked response: -2.52
